- Tested on: KM20L2 colon
- Procedure Details: NCI tumour cell line growth inhibition, 48 h
Property: TGI

Some solved cases for reference:
| Compound | Property | Result |
| --- | --- | --- |
| COc1ccc2c(c1)CC[C@@H]1C2CC[C@]2(C)C(=O)NC(=O)CC12 (stereo partly specified) | TGI | > 100 µM |
| CC1(C)OCN(c2ccc(Cl)cc2)Cn2c1nc1ccccc12 | TGI | > 100 µM |
| CCOC(=O)C(C)(C)Oc1ccc2c(-c3ccc(Cl)cc3)cc(=O)oc2c1 | TGI | > 100 µM |
| CN(O)C(=O)Cc1ccccc1 | TGI | > 100 µM |

Could I get TGI for every one of these entries?
1. Cc1nc(-c2nc([N+](=O)[O-])c([N+](=O)[O-])[nH]2)cs1
2. CN1OC(=O)N(C)C1c1ccccc1 (stereo unspecified)

[out]
1: > 100 µM; 2: > 100 µM

Could I get TGI for every one of these entries?
1. CCC1(OC(C)=O)C(=O)OCc2c1cc1n(c2=O)Cc2cc3ccccc3nc2-1 (stereo unspecified)
2. O=c1[nH]c(=S)[nH]c(O)c1/C=C1\C=CC=N1

[out]
["> 100 µM", "41.1 µM"]
